// data source = ChEMBL document CHEMBL4028836

Run Description: Oral bioavailability in dog at 3 mg/kg
Assay type: ADME, organism-based, Canis lupus familiaris
Test Parameters: in vivo
Metric Name: bioavailability
# do not omit the unit; it follows the number

INPUT: Indicate its recorded bioavailability; the compound in question is Cc1nnc2sc(C(=O)NCc3ccc(-c4cccnc4F)cc3)c(N)c2c1C.Cl
OUTPUT: 47%

---

Target Or System: Muscarinic acetylcholine receptor M3 (Rattus norvegicus, UniProt P08483)
Sequence (P08483 whole entry): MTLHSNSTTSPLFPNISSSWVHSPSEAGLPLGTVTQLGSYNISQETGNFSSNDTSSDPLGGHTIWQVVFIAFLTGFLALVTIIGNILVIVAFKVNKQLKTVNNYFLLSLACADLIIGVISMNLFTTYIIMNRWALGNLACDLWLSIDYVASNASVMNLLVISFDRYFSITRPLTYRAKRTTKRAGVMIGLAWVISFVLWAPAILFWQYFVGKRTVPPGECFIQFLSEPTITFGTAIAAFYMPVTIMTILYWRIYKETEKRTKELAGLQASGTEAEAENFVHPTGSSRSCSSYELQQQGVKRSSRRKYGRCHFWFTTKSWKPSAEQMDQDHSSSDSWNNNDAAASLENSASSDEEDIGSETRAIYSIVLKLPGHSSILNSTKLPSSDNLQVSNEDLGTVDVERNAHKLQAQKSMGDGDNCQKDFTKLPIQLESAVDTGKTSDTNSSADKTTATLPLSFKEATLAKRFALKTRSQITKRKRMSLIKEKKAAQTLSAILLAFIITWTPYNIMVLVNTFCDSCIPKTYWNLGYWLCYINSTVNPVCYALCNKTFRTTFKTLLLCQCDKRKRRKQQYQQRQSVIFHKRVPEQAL
Run Description: Activity at rat M3 receptor
Metric Name: EC50

INPUT: // fetch EC50; item: Cc1nnc2sc(C(=O)NCc3ccc(-c4cccnc4F)cc3)c(N)c2c1C ; system: Muscarinic acetylcholine receptor M3 (Rattus norvegicus, UniProt P08483)
OUTPUT: > 30 µM
